TEST_SYSTEM: Virion infectivity factor (Human immunodeficiency virus type 1 group M subtype B (isolate BH10)) + Virion infectivity factor (Human immunodeficiency virus type 1 group M subtype B (isolate BRU/LAI)) + Virion infectivity factor (Human immunodeficiency virus type 1 group M subtype B (isolate PCV12)) + Virion infectivity factor (Human immunodeficiency virus type 1 group M subtype B (isolate HXB2)) + DNA dC->dU-editing enzyme APOBEC-3G (Homo sapiens) (UniProt P69720+P69721+P69722+P69723+Q9HC16)
ASSAY_NOTES: inhibitors of Vif binding to APOBEC3G peptide, primary screen, biochemical, TR-FRET, GST-Vif 1-94, biotin-A3G peptide, dose response retest (AID 1117319);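 note: Vif residues 1-94 fused to GST binding biotinylated APOBEC3G peptide 110-148; 0% = full assay without inhibitor and 100% = GST in place of GST-Vif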
TEST_CONDITIONS: hits give high values
Out of some 260,000 compounds screened, about 1,500 (0.58%) were called active. Inconclusive results (about 5%) are left out. A selection follows. Entries with a potency or affinity are not part of this list.
So I've got a bunch of compounds here, and I need their inhibition values.
Note: unit % is implicit; provide only the numeric part.

## Task What value of inhibition has been reported for the following compound? `O=C(CN(C(=O)CNS(=O)(=O)c1ccc(F)cc1)c1ccc(F)cc1)NCc1ccco1`
## Result -4.81

## Task What value of inhibition has been reported for the following compound? `Cn1cnc([N+](=O)[O-])c1C(=O)Nc1cccc([N+](=O)[O-])c1`
## Result -0.16

## Task What value of inhibition has been reported for the following compound? C/C=C(/C)C(=O)Nc1cccc(C2=NOC3(C2)C[C@@H](C(N)=O)N(C(=O)/C=C/CC)C3)c1 (stereo not given in full)
## Result 13.8

## Task What value of inhibition has been reported for the following compound? `Oc1ccc(/C=N/NC(=S)NCCN2CCOCC2)c(O)c1`
## Result 24.1

## Task What value of inhibition has been reported for the following compound? CC(=O)C1=C(C)OC(N)=C(C#N)C1c1cc2cc(C)c(C)cc2nc1Cl (stereo not given)
## Result 9.71

## Task What value of inhibition has been reported for the following compound? `Cc1c(C(=O)O)sc(=S)n1CCOc1ccccc1`
## Result 5.91

## Task What value of inhibition has been reported for the following compound? CC(=O)C1=C(C)OC(N)=C(C#N)C1c1cc2cccc(C)c2nc1Cl (stereo not given)
## Result -1.1

## Task What value of inhibition has been reported for the following compound? `S=C(NCCN1CCOCC1)N/N=C/c1ccccc1`
## Result 0.06

## Task What value of inhibition has been reported for the following compound? `COc1cc(-c2nnc(NC(=O)CS(=O)(=O)c3ccc(C)cc3)o2)cc(OC)c1OC`
## Result -0.69

## Task What value of inhibition has been reported for the following compound? `O=C(CNc1ccc(F)cc1)N/N=C1\CCCc2ccccc21`
## Result -0.54

---

TEST_SYSTEM: Virion infectivity factor (Human immunodeficiency virus type 1 group M subtype B (isolate BH10)) + Virion infectivity factor (Human immunodeficiency virus type 1 group M subtype B (isolate BRU/LAI)) + Virion infectivity factor (Human immunodeficiency virus type 1 group M subtype B (isolate PCV12)) + Virion infectivity factor (Human immunodeficiency virus type 1 group M subtype B (isolate HXB2)) + DNA dC->dU-editing enzyme APOBEC-3G (Homo sapiens) (UniProt P69720+P69721+P69722+P69723+Q9HC16)
ASSAY_NOTES: inhibitors of Vif binding to APOBEC3G peptide, primary screen, biochemical, TR-FRET, GST-Vif 1-94, biotin-A3G peptide, dose response retest (AID 1117319);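 note: Vif residues 1-94 fused to GST binding biotinylated APOBEC3G peptide 110-148; 0% = full assay without inhibitor and 100% = GST in place of GST-Vif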
TEST_CONDITIONS: hits give high values
Hit rate of the full screen: of about 260,000 compounds, about 1,500 (0.58%) were called active. Another 5% or so got no clear call; they are omitted. Only a sample is shown. Potency and affinity values are given separately.
So I've got a bunch of compounds here, and I need their inhibition values.
Note: unit % is implicit; provide only the numeric part.

## Task What value of inhibition has been reported for the following compound? `CN=c1scc(C)n1/N=C/c1ccc2c(c1)OCO2`
## Result 13.4

## Task What value of inhibition has been reported for the following compound? COc1ccc(N(C(=O)c2ccco2)C(C(=O)NC2CCCC2)c2ccco2)cc1OC (centres undefined)
## Result 0.94

## Task What value of inhibition has been reported for the following compound? CCOc1cc(C2NC(=O)NC(C)=C2C(=O)OCc2ccccc2)ccc1O (centres undefined)
## Result 0.18

## Task What value of inhibition has been reported for the following compound? `CC(C)N(Cc1ccccc1)C(=O)COC(=O)C1CCN(c2ccc(C(F)(F)F)cn2)CC1`
## Result -3.12

## Task What value of inhibition has been reported for the following compound? `CCCn1c(C)cc(-c2csc(N)n2)c1C`
## Result 11.8

## Task What value of inhibition has been reported for the following compound? `Cc1ccc2cc(CN(CCN3CCOCC3)Cc3nnnn3Cc3ccco3)c(=O)[nH]c2c1C`
## Result 11.1

## Task What value of inhibition has been reported for the following compound? `Oc1ccc(/C=N/n2c(-c3ccco3)csc2=Nc2cccnc2)c(O)c1`
## Result 21

## Task What value of inhibition has been reported for the following compound? `Clc1ccccc1CN1CCN(c2ncccn2)CC1`
## Result -5.95

## Task What value of inhibition has been reported for the following compound? `C=CCn1c(C)cc(-c2csc(NCC)n2)c1C`
## Result 32.5

## Task What value of inhibition has been reported for the following compound? `COc1ccc(O)c(/C=N/n2c(-c3ccco3)csc2=Nc2cccnc2)c1`
## Result 6.77

## Task What value of inhibition has been reported for the following compound? `Nc1ccc(N2CCCCC2)c(Cl)c1`
## Result 19.8

## Task What value of inhibition has been reported for the following compound? `O=C(c1ccccc1)N(Nc1ccccc1)c1ccccc1`
## Result 11.5

## Task What value of inhibition has been reported for the following compound? `C=CCN=c1scc(-c2ccccc2)n1/N=C/c1ccccn1`
## Result 11.2

## Task What value of inhibition has been reported for the following compound? `Cc1ccc(C(=O)Nc2ccc(CC(=O)O)cc2)o1`
## Result 1.07

## Task What value of inhibition has been reported for the following compound? `C=CCn1c(SCC(=O)NCCOC)nc2scc(-c3ccco3)c2c1=O`
## Result 27.8

## Task What value of inhibition has been reported for the following compound? `O=C1CSC(=S)N1c1ccccc1`
## Result -4.55

## Task What value of inhibition has been reported for the following compound? COc1cccc(C(=O)OC(C)CN2CCCC2)c1 (centres undefined)
## Result 2.26

## Task What value of inhibition has been reported for the following compound? `CCCCn1c(SCC(=O)NCc2ccccc2)nc2ccc(N3CCOCC3)cc2c1=O`
## Result 18.7

## Task What value of inhibition has been reported for the following compound? `COc1cccc(-c2c3c([nH]c(=O)c2C#N)CCc2cc(OC)ccc2-3)c1`
## Result -2.14

## Task What value of inhibition has been reported for the following compound? CC1=CCC2C(=O)N(c3nc4ccccc4n3C)C(=O)C2C1 (centres undefined)
## Result 24.7

## Task What value of inhibition has been reported for the following compound? O=C1CC(Sc2ncccc2C(=O)O)C(=O)N1 (centres undefined)
## Result 5.46

## Task What value of inhibition has been reported for the following compound? `CC(C)C(=O)NN(C(=O)c1ccccc1)c1ccccc1`
## Result -2.08

## Task What value of inhibition has been reported for the following compound? `CCN(CC)c1ccc(N2C(=O)CSC2=S)cc1`
## Result -8.43

## Task What value of inhibition has been reported for the following compound? `CCN1CCN(c2nc3ccccn3c(=O)c2/C=C(\C#N)S(=O)(=O)c2ccccc2)CC1`
## Result -0.55

---

So I've got a bunch of compounds here, and I need their inhibition values.
TEST_SYSTEM: Virion infectivity factor (Human immunodeficiency virus type 1 group M subtype B (isolate BH10)) + Virion infectivity factor (Human immunodeficiency virus type 1 group M subtype B (isolate BRU/LAI)) + Virion infectivity factor (Human immunodeficiency virus type 1 group M subtype B (isolate PCV12)) + Virion infectivity factor (Human immunodeficiency virus type 1 group M subtype B (isolate HXB2)) + DNA dC->dU-editing enzyme APOBEC-3G (Homo sapiens) (UniProt P69720+P69721+P69722+P69723+Q9HC16)
ASSAY_NOTES: inhibitors of Vif binding to APOBEC3G peptide, primary screen, biochemical, TR-FRET, GST-Vif 1-94, biotin-A3G peptide, dose response retest (AID 1117319);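 note: Vif residues 1-94 fused to GST binding biotinylated APOBEC3G peptide 110-148; 0% = full assay without inhibitor and 100% = GST in place of GST-Vif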
TEST_CONDITIONS: hits give high values
Hit rate of the full screen: of about 260,000 compounds, about 1,500 (0.58%) were called active. Inconclusive results (about 5%) are left out. Only a sample is shown. Results with a measured potency or affinity are listed apart.
Note: unit % is implicit; provide only the numeric part.

## Task What value of inhibition has been reported for the following compound? `O=C(NCCc1ccccc1)c1ccc2nccnc2c1`
## Result 28.7

## Task What value of inhibition has been reported for the following compound? `Cc1nnc(Oc2ccccc2F)c2ccccc12`
## Result 0.32

## Task What value of inhibition has been reported for the following compound? `Fc1ccc(CSc2nnc(-c3ccccn3)o2)cc1`
## Result -5.79

## Task What value of inhibition has been reported for the following compound? `O=C(NCc1ccccn1)c1ccc(=O)oc1`
## Result 11.6

## Task What value of inhibition has been reported for the following compound? `O=C(NCc1ccccn1)c1ccc(NC(=O)c2ccco2)cc1`
## Result 1.9

## Task What value of inhibition has been reported for the following compound? `Cc1cc(=O)oc2c(CN3CCN(C)CC3)c(O)c(Cl)cc12`
## Result -0.71

## Task What value of inhibition has been reported for the following compound? `COc1ccc(CCNC(=O)c2cc(-c3ccco3)on2)cc1OC`
## Result -1.47

## Task What value of inhibition has been reported for the following compound? `CCc1nc2ccc(C(=O)NCCc3ccc(OC)c(OC)c3)cc2nc1CC`
## Result 0.19

## Task What value of inhibition has been reported for the following compound? COc1ccc(N=C2SC(C(=O)Nc3ccc(C(=O)O)cc3)CC(=O)N2Cc2cccs2)cc1 (configuration not stated)
## Result -11.4

## Task What value of inhibition has been reported for the following compound? `O=C(c1cccc(S(=O)(=O)N2CCc3ccccc32)c1)N1CCN(c2ccccn2)CC1`
## Result -7.91

## Task What value of inhibition has been reported for the following compound? `COc1ccc(C(=O)NCc2ccccn2)cc1`
## Result 19.1

## Task What value of inhibition has been reported for the following compound? `O=C(NCCc1ccccc1)c1cc(-c2ccco2)on1`
## Result 25.6
